Test system: Salmonella typhimurium TA1535
assayProcedure: Ames test (reverse mutation test), TA1535
Assay type: cell-based
settings: S9 Mix +, 1667 μg/plate
measure: Number of revertant colonies TA1535
Field format: numeric only.

molecule="Cc1cccc(-n2nc(N)cc2-c2cccc(OC(F)(F)F)c2)c1 [Metabolite H]" measurednumber=3
molecule="CC(C)(OCc1cc(F)cc(-c2cc(N)nn2-c2ccc(F)cc2)c1)C(F)(F)F [Metabolite D]" measurednumber=7
molecule="Nc1cc(-c2cccc(OC(F)(F)F)c2)n(-c2cccc(F)c2)n1 [Metabolite G]" measurednumber=4
molecule="Nc1cc(-c2cccc(OCC(F)(F)F)c2)n(-c2ccc(F)cc2)n1 [Metabolite E]" measurednumber=0

Quick check: Number of revertant colonies TA1535 of Cc1ccc(-n2nc(N)cc2-c2cccc(OCC(F)(F)F)c2)cc1 [Metabolite F] ?
0

---

Test system: Salmonella typhimurium TA1535
assayProcedure: Ames test (reverse mutation test), TA1535
Type: cell-based
settings: S9 Mix −, 21 μg/plate
Text: Ames Test (Reverse Mutation Test) Two plates per treatment were used.
Friendly reminder: Number of revertant colonies TA1535 below 20 is fulfilled, at or above is not fulfilled.

Example entries begin here.
compound="Cc1ccc(-n2nc(N)cc2-c2cccc(OCC(F)(F)F)c2)cc1 [Metabolite F]" classlabel=fulfilled
compound="CC(C)(OCc1cc(F)cc(-c2cc(N)nn2-c2ccc(F)cc2)c1)C(F)(F)F [Metabolite D]" classlabel=fulfilled
compound="Nc1cc(-c2cccc(OC(F)(F)F)c2)n(-c2cccc(F)c2)n1 [Metabolite G]" classlabel="not fulfilled"
compound="CC(C)(C)Oc1cccc(-c2cc(N)nn2-c2ccccc2)c1 [Metabolite C]" classlabel=fulfilled
compound="Nc1cc(-c2cccc(OCC(F)(F)F)c2)n(-c2ccc(F)cc2)n1 [Metabolite E]" classlabel=fulfilled

Lab note: next compound to report on.
Say whether its Number of revertant colonies TA1535 is strictly beneath 20. Entry: Cc1cccc(-n2nc(N)cc2-c2cccc(OC(F)(F)F)c2)c1 [Metabolite H]
fulfilled

---

System: Salmonella typhimurium TA1535
assayProcedure: Ames test (reverse mutation test), TA1535
Type: cell-based
settings: with S9 mix; dose 5000 μg/plate
Attribute: Number of revertant colonies TA1535
Answer field: number only, no words.

Completed entries (count: 3):
compound="Nc1cc(-c2cc(F)cc(OC(F)(F)F)c2)n(-c2cncc(C(F)(F)F)c2)n1 [Metabolite 5]" targetortestsystem="Salmonella typhimurium TA1535" measure="Number of revertant colonies TA1535" measurednumber=2
compound="CC(C)(C)Oc1cccc(-c2cc(N)nn2-c2ccccc2)c1 [Metabolite C]" targetortestsystem="Salmonella typhimurium TA1535" measure="Number of revertant colonies TA1535" measurednumber=4
compound="CC(C)(C)Oc1cc(F)cc(-c2cc(N)nn2C(F)(F)F)c1 [Metabolite 1]" targetortestsystem="Salmonella typhimurium TA1535" measure="Number of revertant colonies TA1535" measurednumber=2

Please report the recorded Number of revertant colonies TA1535 for Nc1cc(-c2cc(F)cc(OC(F)(F)F)c2)n(-c2cncc(F)c2)n1 [Metabolite 3] .
1

---

# key: entry, value: Number of revertant colonies TA1535
Test system: Salmonella typhimurium TA1535
assayProcedure: Ames test (reverse mutation test), TA1535
Type: cell-based
settings: S9 Mix −, 1667 μg/plate
Could you keep your reply to the number by itself?

molecule="Cc1cccc(-n2nc(N)cc2-c2cccc(OC(F)(F)F)c2)c1 [Metabolite H]" measure="Number of revertant colonies TA1535" measurednumber=6
molecule="CC(C)(C)Oc1cccc(-c2cc(N)nn2-c2ccccc2)c1 [Metabolite C]" measure="Number of revertant colonies TA1535" measurednumber=1
molecule="Nc1cc(-c2cccc(OC(F)(F)F)c2)n(-c2cccc(F)c2)n1 [Metabolite G]" measure="Number of revertant colonies TA1535" measurednumber=0
molecule="Nc1cc(-c2cccc(OCC(F)(F)F)c2)n(-c2ccc(F)cc2)n1 [Metabolite E]" measure="Number of revertant colonies TA1535" measurednumber=0
molecule="CC(C)(OCc1cc(F)cc(-c2cc(N)nn2-c2ccc(F)cc2)c1)C(F)(F)F [Metabolite D]" measure="Number of revertant colonies TA1535" measurednumber=6

Continue with the molecule presented below.
Which Number of revertant colonies TA1535 value is on record for Cc1ccc(-n2nc(N)cc2-c2cccc(OCC(F)(F)F)c2)cc1 [Metabolite F] ?
0

The values you see were collected from patent US12721844B2.
